- method-notes: HepG2 cytotoxicity, primary screen, cytotoxicity control for P. falciparum antimalarial project, cell-based, ATP luminescence (AID 2303);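 note: 0% = DMSO wells and 100% = digitonin-killed cells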
- assay-setup: HepG2 viability, 24-48 h, at 10 µM, active compounds read high
test-readout: inhibition (%)
One number for each entry, in %.

Below is a list of molecules. For each, state its recorded inhibition.
1. O=C1[C@H]2C(c3ccc(Cl)c(Cl)c3)N3CC(OCc4ccccc4)CC3(C(=O)O)[C@H]2C(=O)N1c1ccc(Br)cc1 (some centres undefined)
2. CSc1ccc(NC(=O)Nc2cc(C)nc3ccccc23)cc1Br

14
7

For every record below, what is its inhibition?
1. CS(=O)(=O)c1ccc(-n2nc(C(F)(F)F)cc2-c2ccc(/C=N/OCC(=O)O)o2)cc1
2. COc1cccc([C@@H](CC(=O)Nc2cc(C(F)(F)F)ccc2OC)Nc2ccc(C#N)c3ccccc23)c1
3. Cc1cc(Nc2ncc(Cl)c(Nc3ccccc3C(N)=O)n2)n[nH]1
4. CN(C)CCN(C)C(=O)c1cc(-c2ccncc2)c(-c2ccc(Cl)c(O)c2)o1
5. COc1ccc2ncc(Cl)c([C@H](O)CN3CCC(NCc4cc5c(cn4)OCCO5)CC3)c2c1
6. O=C(c1cccc(COc2ccc3c(c2)CCN(C2CCCC2)CC3)c1)N1CCN(c2ccncc2)CC1

-15
19
70
-11
10
49

So what does the record say about inhibition for Cc1cc(N(CCN2CCCCC2)CCN2CCCCC2)nc(Nc2ccc(Cl)cc2)n1 ?
19
